target: HDAC9 enzyme (Homo sapiens, UniProt Q9UKV0); construct: transducing full length HDAC9 gene into Sf-9 insect cells; made in house; host or cells: Sf-9 insect cells; assay: HDAC9 Enzyme Inhibitory Assay (HDAC-Glo class IIa); type: biochemical; conditions: 1 μM test compound; wells without enzyme = 100% inhibition; read-out: HDAC9 inhibitory rate (%) (1 μM)
Sequence (Q9UKV0 whole entry, species assumed): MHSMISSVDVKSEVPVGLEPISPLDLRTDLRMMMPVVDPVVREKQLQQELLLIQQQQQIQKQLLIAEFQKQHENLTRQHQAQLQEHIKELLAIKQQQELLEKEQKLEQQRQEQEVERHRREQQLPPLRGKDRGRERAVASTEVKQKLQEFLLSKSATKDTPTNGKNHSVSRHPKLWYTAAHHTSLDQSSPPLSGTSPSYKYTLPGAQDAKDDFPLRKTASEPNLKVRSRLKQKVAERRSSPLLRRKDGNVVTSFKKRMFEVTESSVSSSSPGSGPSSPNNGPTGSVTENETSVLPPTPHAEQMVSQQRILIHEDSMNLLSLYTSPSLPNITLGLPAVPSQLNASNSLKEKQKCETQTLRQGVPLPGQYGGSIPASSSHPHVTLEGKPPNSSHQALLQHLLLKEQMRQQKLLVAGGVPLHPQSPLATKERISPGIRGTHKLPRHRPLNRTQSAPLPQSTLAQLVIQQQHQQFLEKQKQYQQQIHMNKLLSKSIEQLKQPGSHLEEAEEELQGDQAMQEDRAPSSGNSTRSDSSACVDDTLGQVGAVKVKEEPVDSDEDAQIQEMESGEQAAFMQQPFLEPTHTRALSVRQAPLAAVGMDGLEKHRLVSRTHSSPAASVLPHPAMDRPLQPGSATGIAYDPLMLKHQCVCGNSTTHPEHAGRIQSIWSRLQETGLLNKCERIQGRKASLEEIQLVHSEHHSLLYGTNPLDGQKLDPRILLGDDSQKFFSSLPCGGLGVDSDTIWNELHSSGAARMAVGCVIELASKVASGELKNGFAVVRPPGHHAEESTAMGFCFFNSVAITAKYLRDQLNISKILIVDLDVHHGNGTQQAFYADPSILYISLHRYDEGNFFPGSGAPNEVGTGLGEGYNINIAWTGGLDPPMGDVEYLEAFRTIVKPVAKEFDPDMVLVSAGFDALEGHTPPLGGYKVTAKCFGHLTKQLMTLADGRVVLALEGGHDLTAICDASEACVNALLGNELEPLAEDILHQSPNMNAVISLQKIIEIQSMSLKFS
# if value of inhibition at 1 µM reaches 80%, tag 1; if it stays below, tag -1

Examples from the recorded data:
>  <compound>
CC(=O)N1C[C@@H](N2Cc3ccc(-c4noc(C(F)(F)F)n4)cc3C2=O)[C@H](c2ccccc2)C1 (relative stereo)

>  <group_label>
1

$$$$
>  <compound>
O=C(C1CC1)N1C[C@@H](N2Cc3ccc(-c4noc(C(F)(F)F)n4)cc3C2=O)[C@H](c2ccccc2)C1 (relative stereo)

>  <group_label>
1

$$$$
>  <compound>
Cn1cc(C(=O)N[C@@H]2CCCC[C@H]2N2Cc3ccc(-c4noc(C(F)(F)F)n4)cc3C2=O)cn1

>  <group_label>
-1

$$$$
>  <compound>
CC(C)(C)OC(=O)N1CC(C)(C(=O)N[C@@H]2CCCC[C@H]2N2Cc3ccc(-c4noc(C(F)(F)F)n4)cc3C2=O)C1

>  <group_label>
-1

$$$$

I'd appreciate it if you could say whether O=C(N[C@@H]1CCCC[C@H]1N1Cc2ccc(-c3noc(C(F)(F)F)n3)cc2C1=O)N1CC(F)C1 has inhibition at 1 µM at least equal to 80%.
-1

I'd appreciate it if you could say whether O=C1c2cc(-c3noc(C(F)(F)F)n3)ccc2CN1[C@@H]1CCCC[C@H]1c1ccccc1 (relative stereo) has inhibition at 1 µM at least equal to 80%.
1

I'd appreciate it if you could say whether COC1CN(C(=O)N[C@@H]2CCCC[C@H]2N2Cc3ccc(-c4noc(C(F)(F)F)n4)cc3C2=O)C1 has inhibition at 1 µM at least equal to 80%.
-1

I'd appreciate it if you could say whether CC(C)(C)OC(=O)N1CC[C@@H](N2Cc3cc(-c4noc(C(F)(F)F)n4)ccc3C2=O)[C@H](c2ccccc2)C1 (relative stereo) has inhibition at 1 µM at least equal to 80%.
-1

I'd appreciate it if you could say whether O=C1CC[C@H](C(=O)N[C@@H]2CCCC[C@H]2N2Cc3ccc(-c4noc(C(F)(F)F)n4)cc3C2=O)N1 has inhibition at 1 µM at least equal to 80%.
-1

I'd appreciate it if you could say whether O=C(N[C@@H]1CCCC[C@H]1N1Cc2ccc(-c3noc(C(F)(F)F)n3)cc2C1=O)[C@H]1CCCO1 has inhibition at 1 µM at least equal to 80%.
-1

I'd appreciate it if you could say whether O=C(N[C@@H]1CCCC[C@H]1N1Cc2ccc(-c3noc(C(F)(F)F)n3)cc2C1=O)C1C[C@@H]1F (some centres unmarked) has inhibition at 1 µM at least equal to 80%.
-1

I'd appreciate it if you could say whether N[C@@H]1CCC[C@H]1N1Cc2ccc(-c3noc(C(F)(F)F)n3)cc2C1=O has inhibition at 1 µM at least equal to 80%.
-1
